Where do the numbers come from? From PubChem BioAssay (EPA / NIEHS).

test: ATG_ISRE_CIS: Attagene CIS-FACTORIAL HepG2 Assay for human Interferon Regulatory Factor 1 (IRF1) binding to an Interferon-Stimulated Response Element (ISRE) (AID 2282948); settings: HepG2 ISRE cis-reporter (Attagene), mRNA transcription readout; actives raise or lower the signal
Active and inactive are the calls of the source. Rule for the calls: active = hit-call score of the fitted dose curve at least 0.9, where 1 is the maximum; inactive = score below 0.9.
Outcome codes: 1 = active, 0 = inactive

> print(dat)
                                    molecule  label.class
 1                      CCOc1ccc(NC(N)=O)cc1            0
 2  Cc1c(C(=O)c2c[nH]n(C)c2=O)ccc(S(C)(=O)=O)c1C1=NOCC1            0
 3                        CCN(CC)c1cccc(C)c1            0
 4                            CO[Si](C)(C)OC            0
 5  CC1CCC(C(C)(C)S)C(=O)C1 (stereo not given)            0
 6                  O=C(O)c1cc(O)c2ccccc2c1O            0
 7                            COc1cc(C)ccc1O            0
 8                           CCCCCCCCCC(C)=O            0
 9                   C=C(C)[C@@H]1CC=C(C)CC1            0
10                    CC(C)C(=O)OCCOc1ccccc1            0
11  C=C[C@@]1(C)CC(=O)[C@]2(O)[C@@]3(C)[C@@H](O)CCC(C)(C)[C@@H]3[C@H](O)[C@H](OC(C)=O)[C@@]2(C)O1            0
12                             Cc1c(O)cccc1O            0
13  CCC(=O)C1CC(C(C)C)CC=C1C (stereo not given)            0
14                           Cc1cc(C)n(CO)n1            0
15  C=CC(=O)OCC(C)OCC(C)OCC(C)OC(=O)C=C (stereo not given)            1
16  CC(C)(C)NC(=O)[C@H]1CC[C@H]2[C@@H]3CC[C@H]4NC(=O)C=C[C@]4(C)[C@H]3CC[C@]12C            0
17                                 C=CCNCC=C            0
18         CCOC(=O)[C@H](O)[C@@H](O)C(=O)OCC            0
19  C=C(C)C1CC=C(C)C(OC(C)=O)C1 (stereo not given)            0
20     CCCCC1C(=O)N(c2ccccc2)N(c2ccccc2)C1=O            0
21     CC1OC(=O)C(C)OC1=O (stereo not given)            0
22                CCNc1nc(NC(C)(C)C)nc(OC)n1            0
23                C=C[Si](OCCOC)(OCCOC)OCCOC            0
24                            c1ccc2cnccc2c1            0
25                       CCCCCCCCCCCC(=O)OCC            0
26                           CCCCCCCC(=O)OCC            0
27                                 CC(C)=CCl            0
28                         C=CC(=O)NC(C)(C)C            0
29  CC1(C)CCC[C@]2(C)[C@H]3CC(=O)O[C@]3(C)CC[C@@H]12            0
30                        [Cl][Eu]([Cl])[Cl]            0
